Data provenance: paper PMC5540273

- Test system: PDGFRB
- COND: concentration: 1 μM, replicates: in singlicate; n = 1;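 also: KINOMEscan kinase panel screen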
Hi there, I'd appreciate the recorded %Inh for every entry that follows.
Just the number in %, nothing appended.

Note to self: %Inh recorded for Cc1cccc(Cn2ccn3c(=O)cc(N4CCOCC4)nc23)c1 was 40

Entry Cc1nnc(-c2ccc3occ(-c4ccc(C(C)O)cc4)c3c2)o1 (stereo not drawn) — recorded %Inh = 8

Memo: COc1cc(Nc2nccc(N3CCC(NC(=O)c4cccc(NC(C)=O)c4)C3)n2)cc(OC)c1OC (stereo not drawn) , reported %Inh: 54

###

- Test system: PRKCD
- COND: concentration: 1 μM, replicates: in singlicate; n = 1
I'd appreciate it if you could supply %Inh values for the items below.

Briefly, %Inh measured for Cn1ccc2ncnc(Oc3ccc(NC(=O)Nc4ccncc4)c(Cl)c3)c21 : 6%

Looking up COc1ccc(Nc2nccc(N3CCC(NC(=O)Nc4cccc(C(C)=O)c4)C3)n2)cc1 (stereo not drawn) , I see its %Inh listed as 0%

Per the record, Cn1cc(-c2ccc3c(c2)CCN3C(=O)Cc2ccccc2Cl)c2c(N)ncnc21 has %Inh of 51%

Noted for O=C(Nc1n[nH]c2cc(-c3cccc(F)c3)ccc12)C1CC1 : its %Inh reads 0%

Recorded %Inh (compound CC(C)Oc1ccc2c(-c3ccnc(Nc4ccc(N5CCN(C)CC5)cc4)n3)cnn2n1 ): 0%

Query COc1cc2c(cc1OCCN1CCN(C)CC1)ncc1c3ccc(C#N)cc3[nH]c21 yields %Inh of 1%

Noted for Cl.Oc1cccc(Nc2ccnc3cc(-c4ccncc4)ccc23)c1 : its %Inh reads 0%

Measured %Inh of CN1c2ccc(CNc3ccc(F)cc3)cc2-c2c(cnn2C)S1(=O)=O : 0%

Reported %Inh ( CCCCCc1nc2c(N)ncnc2n1CCCCC ) = 18%

response.value for O=c1cc(N2CCOCC2)nc2n(Cc3cccc(F)c3)ccn12 (field: %Inh) = 2%

Lab note: COc1ccc(CNC(=O)NC2CCN(c3ccnc(Nc4ccc(OC)cc4)n3)C2)cc1 (stereo not drawn) gave %Inh of 0%

Sample COc1cc(Nc2nccc(N3CCC(NC(=O)c4cccc(NC(C)=O)c4)C3)n2)cc(OC)c1OC (stereo not drawn) ; %Inh observed: 8%

Looking up Cc1nnc(-c2ccc3ncc(-c4ccc(S(C)=O)cc4)n3c2)o1 (stereo not drawn) , I see its %Inh listed as 14%

The compound Cc1ccc(C(=O)NCC(N)=O)cc1-n1c(C)cc(OCc2ccc(F)cc2F)c(Br)c1=O showed %Inh equal to 33%

The compound Nc1nccc(-c2c(-c3ccc(F)cc3)ncn2C2CCN(CC(F)(F)F)CC2)n1 showed %Inh equal to 0%

###

- Test system: RPS6KA4(Kin.Dom.2-C-terminal)
- COND: concentration: 1 μM, replicates: in singlicate; n = 1
VALUE KIND: %Inh (%)
Provide the reading as a plain figure in %.

The value of %Inh measured for the compound NS(=O)(=O)c1cccc(-c2ccc3nccc(-c4cccc(S(N)(=O)=O)c4)c3c2)c1 turned out to be 0

Measured %Inh, Cc1c2ccc(N(C)c3ccnc(Nc4cccc(S(N)(=O)=O)c4)n3)cc2nn1Cc1ccccc1.Cl.Cl : 0

Form field %Inh, entry O=c1cc(N2CCOCC2)nc2n(Cc3cccc(F)c3)ccn12 : 0

The value of %Inh measured for the compound Cc1c(Cn2c(C)nn3c(=O)cc(N4CCOC(C)C4)nc23)cccc1C(F)(F)F (centres unmarked) turned out to be 0

Value of %Inh reported for the compound CC(=O)Nc1ccc(COc2ccc(Nc3ccnc4cc(-c5ccccn5)ccc34)cc2)cc1.Cl is 0

The value of %Inh measured for the compound O=C(Nc1cccc(-c2nn3ncccc3c2-c2ccnc(Nc3cccc(C(F)(F)F)c3)n2)c1)c1c(F)cccc1F turned out to be 0

Lab book: %Inh of O=C1Cc2cc(Nc3nc(NCc4cccc(S(=O)(=O)C(F)(F)F)c4)ncc3C(F)(F)F)ccc2N1 noted as 24

Measured %Inh of Cc1nnc(-c2ccc3ncc(-c4ccc(S(C)=O)cc4)n3c2)o1 (centres unmarked) : 9
